Source listed as patent US6001988.

Biological target: T1, L-selectin (LS-Rg) (Homo sapiens, UniProt P14151 P14151:39-332)
T1 chain: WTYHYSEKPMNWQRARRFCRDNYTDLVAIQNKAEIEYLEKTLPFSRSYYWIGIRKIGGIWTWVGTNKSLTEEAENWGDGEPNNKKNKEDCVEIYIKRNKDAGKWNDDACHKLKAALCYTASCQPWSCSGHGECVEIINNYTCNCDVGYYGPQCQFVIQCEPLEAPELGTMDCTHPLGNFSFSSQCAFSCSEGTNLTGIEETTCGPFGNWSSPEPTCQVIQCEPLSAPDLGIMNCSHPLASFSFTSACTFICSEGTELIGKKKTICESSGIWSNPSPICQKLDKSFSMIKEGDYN
Assay: filter; 4 C, HSMC; biphasic, fraction 0.65, low affinity Kd 14.5 nM; 142 nM at room temp
Settings: tags: human IgG2 Fc fusion (provided by A. Varki); label: 32P

{"BINDER": "F14.53 (ssRNA, 2'-NH2 all C and U) RNA: GGGAGGACGAUGCGGUCCCAGAGUCCCGUGAUGCGAAGAAUCCAUUAGUACCAGACAGACGACUCGCCCGA", "Kd (nM)": 0.097}
